assay: amyloid nucleation score (Sup35N fusion, yeast selection) (log enrichment); library NNK3; higher = more nucleation; inactive = no reads after selection;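 note: zero at mode of non-aggregating sequences after 7 days selection at 30°C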
value_type: amyloid nucleation score

Take a look at these entries with their results.
Exercise: Fill blank: measured amyloid nucleation score of the sequence RQVTLARWTISIC is ____.
Solution: inactive

Exercise: Fill blank: measured amyloid nucleation score of the sequence HRKSGMVIYFTVPWFMKRNC is ____.
Solution: inactive

Exercise: Fill blank: measured amyloid nucleation score of the sequence LFEWMRCMTVFMVGAAYAAT is ____.
Solution: inactive

Exercise: Fill blank: measured amyloid nucleation score of the sequence FDSDRCIMCLTHLWILWGLR is ____.
Solution: inactive

Exercise: Fill blank: measured amyloid nucleation score of the sequence RCSDWYHFTAQSS is ____.
Solution: inactive

Exercise: Fill blank: measured amyloid nucleation score of the sequence DKSMIFVFI is ____.
Solution: 0.864

Exercise: Fill blank: measured amyloid nucleation score of the sequence GFGQATTCLSLNSACF is ____.
Solution: 0.544

Pending sequence:
Exercise: Fill blank: measured amyloid nucleation score of the sequence QREGSNCAILCLL is ____.
Solution: inactive

----------
experiment: amyloid nucleation score (Sup35N fusion, yeast selection) (log enrichment); library NNK3; higher = more nucleation; inactive = no reads after selection
value_type: amyloid nucleation score

Exercise: Fill blank: measured amyloid nucleation score of the sequence QYKSMAGSLWFNSVQEQASK is ____.
Solution: inactive

Exercise: Fill blank: measured amyloid nucleation score of the sequence CSKIFGRERMFYRVDMVS is ____.
Solution: inactive

Exercise: Fill blank: measured amyloid nucleation score of the sequence VKWWGAES is ____.
Solution: inactive

Exercise: Fill blank: measured amyloid nucleation score of the sequence RSTWMAIWKERYMQTGFL is ____.
Solution: inactive

Exercise: Fill blank: measured amyloid nucleation score of the sequence EGWIRVFTEFNFSS is ____.
Solution: 0.263

***
Exercise: Fill blank: measured amyloid nucleation score of the sequence GFLESCENLVQFKRARWSNI is ____.
Solution: inactive

Exercise: Fill blank: measured amyloid nucleation score of the sequence VGDLLCPIASLGSRRNLWCR is ____.
Solution: inactive

----------
experiment: amyloid nucleation score (Sup35N fusion, yeast selection) (log enrichment); library NNK1; higher = more nucleation; inactive = no reads after selection
value_type: amyloid nucleation score

Take a look at these entries with their results.
Exercise: Fill blank: measured amyloid nucleation score of the substance QGIVAVLED is ____.
Solution: inactive

Exercise: Fill blank: measured amyloid nucleation score of the substance ALCYPLMDSRSSRSYVQTRR is ____.
Solution: 2.61

Exercise: Fill blank: measured amyloid nucleation score of the substance SWRGICV is ____.
Solution: inactive

Exercise: Fill blank: measured amyloid nucleation score of the substance VGHSEIKMTMTRLADLGVCE is ____.
Solution: 0.612

Exercise: Fill blank: measured amyloid nucleation score of the substance CFDFYSYRVVSSAINYQFVM is ____.
Solution: -1.02

Exercise: Fill blank: measured amyloid nucleation score of the substance ISSYTCCFYSYHQSHVMPLG is ____.
Solution: 5.85

Exercise: Fill blank: measured amyloid nucleation score of the substance RRIRFNIRFTTCL is ____.
Solution: 0.802

Exercise: Fill blank: measured amyloid nucleation score of the substance VGWLRFIRWYDPRLENWRTG is ____.
Solution: 0.235

***
Exercise: Fill blank: measured amyloid nucleation score of the substance LIVVSLGKMKLGYYFKFNVL is ____.
Solution: 0.286
